The entries below are paired with their reported GI50.
System: K-562 leukemia
Test: NCI tumour cell line growth inhibition, 48 h

GET /value?item= N#Cc1c(N/N=C/c2c(Cl)cccc2Cl)nc(N)nc1N1CCCC1 &field=GI50 returns 2.87 µM

GET /value?item= O=C(/C=C/N1CCN(c2cccc(Cl)c2)CC1)c1ccc(Cl)cc1 &field=GI50 returns 28 µM

GET /value?item= C/C(=N\NC(=O)c1ccncc1)c1ccccc1O &field=GI50 returns 5.78 µM

GET /value?item= COc1cc(-c2nn(-c3cccc(NC(=O)c4cccc(C(F)(F)F)c4)c3)cc2-c2ccncc2)ccc1Cl &field=GI50 returns 1.4 µM

GET /value?item= O=C1COc2c(CCNCCN(C(=O)CCNCCc3ccc(Cl)c(Cl)c3)C3CCCCC3)ccc(O)c2N1 &field=GI50 returns 16.2 µM

GET /value?item= COc1ccc(Cl)cc1Nc1nc(C(F)(F)F)ccc1C(=O)N/N=C/c1ccc(Cl)cc1 &field=GI50 returns 3.85 µM

GET /value?item= CN(C)C(=O)c1cc2cnc(Nc3ccc(N4CCNCC4)cn3)nc2n1C1CCCC1 &field=GI50 returns 17.6 µM

GET /value?item= Nc1ccc(N)c2c1C(=O)c1cccc([N+](=O)[O-])c1C2=O &field=GI50 returns 5.45 µM

GET /value?item= Cc1cc(N(CCCl)CCCl)ccc1/C=N\NC(=O)c1cccnc1 &field=GI50 returns 20.1 µM

GET /value?item= Clc1ccc(N=CNc2ccc(-c3nc4ccccc4[nH]3)cc2)cc1 &field=GI50 returns 1.56 µM
